# target-or-test-system: full-length B-Catenin (Uniprot ID P35222) (Homo sapiens)
# Construct: 65 nM full-length B-Catenin (Uniprot ID P35222)
# Sequence (P35222 whole entry): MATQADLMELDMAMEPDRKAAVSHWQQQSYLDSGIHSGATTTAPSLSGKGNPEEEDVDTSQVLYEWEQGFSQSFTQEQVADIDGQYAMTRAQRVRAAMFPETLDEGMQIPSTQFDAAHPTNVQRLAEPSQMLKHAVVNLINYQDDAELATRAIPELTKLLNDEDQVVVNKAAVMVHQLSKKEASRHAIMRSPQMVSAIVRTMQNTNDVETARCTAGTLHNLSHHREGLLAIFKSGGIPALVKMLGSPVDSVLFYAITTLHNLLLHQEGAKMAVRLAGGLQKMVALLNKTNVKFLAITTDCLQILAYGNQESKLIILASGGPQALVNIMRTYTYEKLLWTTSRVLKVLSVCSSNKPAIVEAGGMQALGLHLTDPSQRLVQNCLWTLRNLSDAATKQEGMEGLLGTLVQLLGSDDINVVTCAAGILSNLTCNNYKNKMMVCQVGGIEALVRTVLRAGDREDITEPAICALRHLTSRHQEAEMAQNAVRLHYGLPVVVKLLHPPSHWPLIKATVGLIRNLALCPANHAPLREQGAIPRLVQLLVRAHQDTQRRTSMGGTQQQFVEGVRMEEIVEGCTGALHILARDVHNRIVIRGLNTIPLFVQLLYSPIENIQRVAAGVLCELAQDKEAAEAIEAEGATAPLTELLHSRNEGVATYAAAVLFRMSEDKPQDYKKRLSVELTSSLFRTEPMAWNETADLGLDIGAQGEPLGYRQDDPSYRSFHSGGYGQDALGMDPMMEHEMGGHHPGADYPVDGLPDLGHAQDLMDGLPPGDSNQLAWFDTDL
# measurement-description: Alphascreen binding assay (beta-catenin / biotin-TCF4 10-53)
measurement-label: EC50 (µM)
// return numeric value only (unit: µM, not printed)

Determine its reported EC50: CC(=O)N[C@@H](Cc1ccccc1)C(=O)N[C@@H](CC(=O)O)C(=O)N[C@@H](C)C(=O)N[C@]1(C)CCCC=CCOC(=O)N(C)CCC[C@@](C)(C(=O)N[C@@H](Cc2ccccc2)C(=O)N[C@@H](Cc2c[nH]c3ccccc23)C(=O)N[C@@H](CCC(N)=O)C(N)=O)NC(=O)[C@H](C(C)C)NC(=O)[C@H](Cc2ccccc2)NC(=O)[C@H](C)NC(=O)[C@H](C)NC(=O)[C@H](CC(=O)O)NC(=O)[C@H](CC(=O)O)NC1=O [I-25]
7.22

Determine its reported EC50: CC[C@H](C)[C@H](NC(=O)[C@H](CC(=O)O)NC(=O)[C@H](C)NC(C)=O)C(=O)N[C@]1(C)CCN(C)C(=O)OCC=CCCCCC[C@@](C)(C(=O)N[C@@H](Cc2ccccc2)C(=O)N[C@@H](Cc2c[nH]c3ccccc23)C(=O)N[C@@H](Cc2c[nH]cn2)C(N)=O)NC(=O)[C@H](CCC(N)=O)NC(=O)[C@H](Cc2ccccc2)NC(=O)[C@H](C)NC(=O)[C@H](C)NC(=O)[C@H](CC(=O)O)NC(=O)[C@H](CC(=O)O)NC1=O [I-65]
2.08

Determine its reported EC50: CC(=O)N1CCC[C@]12CC=CCCCC1(CCCC=CCCCCCC[C@@](C)(C(=O)N[C@@H](Cc3ccccc3)C(=O)N[C@@H](Cc3csc4ccccc34)C(=O)N[C@@H](CCC(N)=O)C(N)=O)NC(=O)[C@H](C(C)C)NC(=O)[C@H](Cc3ccccc3)NC(=O)[C@H](C)NC(=O)[C@H](C)NC(=O)[C@H](Cc3ccc4ccccc4c3)NC(=O)[C@H](CC(=O)O)NC1=O)NC(=O)[C@H](C)NC(=O)[C@H](CC(=O)O)NC2=O (some centres unmarked) [I-297]
5.81

Determine its reported EC50: CC(=O)N1CCC[C@]12CC=CCCCC1(CCCC=CCCCCCC[C@@](C)(C(=O)N[C@@H](Cc3ccccc3)C(=O)N[C@@H](Cc3c[nH]c4ccccc34)C(=O)N[C@@H](CCC(N)=O)C(N)=O)NC(=O)[C@H](C(C)C)NC(=O)[C@H](Cc3ccccc3)NC(=O)[C@H](C)NC(=O)[C@H](C)NC(=O)[C@H](Cc3ccc(F)c(F)c3)NC(=O)[C@H](CC(=O)O)NC1=O)NC(=O)[C@H](C)NC(=O)[C@H](CC(=O)O)NC2=O (some centres unmarked) [I-259]
4.18

Determine its reported EC50: CC(=O)N[C@@H](Cc1ccccc1)C(=O)N[C@@H](CC(=O)O)C(=O)N[C@@H](C)C(=O)N[C@]1(C)CCCCCCC=CCOC(=O)N2CC[C@@](C(=O)N[C@@H](Cc3ccc(C(N)=O)cc3)C(=O)N[C@@H](Cc3c[nH]c4ccccc34)C(=O)N[C@@H](CCC(N)=O)C(N)=O)(C2)NC(=O)[C@H](C(C)C)NC(=O)[C@H](Cc2ccccc2)NC(=O)[C@H](C)NC(=O)[C@H](C)NC(=O)[C@H](CC(=O)O)NC(=O)[C@H](CC(=O)O)NC1=O [I-89]
5.64
